- test system: Epidermal growth factor receptor [L858R,T790M,C797S] (Homo sapiens, UniProt P00533, C797S/L858R/T790M)
- Sequence (P00533 25-1210 T790M/C797S/L858R limits assumed): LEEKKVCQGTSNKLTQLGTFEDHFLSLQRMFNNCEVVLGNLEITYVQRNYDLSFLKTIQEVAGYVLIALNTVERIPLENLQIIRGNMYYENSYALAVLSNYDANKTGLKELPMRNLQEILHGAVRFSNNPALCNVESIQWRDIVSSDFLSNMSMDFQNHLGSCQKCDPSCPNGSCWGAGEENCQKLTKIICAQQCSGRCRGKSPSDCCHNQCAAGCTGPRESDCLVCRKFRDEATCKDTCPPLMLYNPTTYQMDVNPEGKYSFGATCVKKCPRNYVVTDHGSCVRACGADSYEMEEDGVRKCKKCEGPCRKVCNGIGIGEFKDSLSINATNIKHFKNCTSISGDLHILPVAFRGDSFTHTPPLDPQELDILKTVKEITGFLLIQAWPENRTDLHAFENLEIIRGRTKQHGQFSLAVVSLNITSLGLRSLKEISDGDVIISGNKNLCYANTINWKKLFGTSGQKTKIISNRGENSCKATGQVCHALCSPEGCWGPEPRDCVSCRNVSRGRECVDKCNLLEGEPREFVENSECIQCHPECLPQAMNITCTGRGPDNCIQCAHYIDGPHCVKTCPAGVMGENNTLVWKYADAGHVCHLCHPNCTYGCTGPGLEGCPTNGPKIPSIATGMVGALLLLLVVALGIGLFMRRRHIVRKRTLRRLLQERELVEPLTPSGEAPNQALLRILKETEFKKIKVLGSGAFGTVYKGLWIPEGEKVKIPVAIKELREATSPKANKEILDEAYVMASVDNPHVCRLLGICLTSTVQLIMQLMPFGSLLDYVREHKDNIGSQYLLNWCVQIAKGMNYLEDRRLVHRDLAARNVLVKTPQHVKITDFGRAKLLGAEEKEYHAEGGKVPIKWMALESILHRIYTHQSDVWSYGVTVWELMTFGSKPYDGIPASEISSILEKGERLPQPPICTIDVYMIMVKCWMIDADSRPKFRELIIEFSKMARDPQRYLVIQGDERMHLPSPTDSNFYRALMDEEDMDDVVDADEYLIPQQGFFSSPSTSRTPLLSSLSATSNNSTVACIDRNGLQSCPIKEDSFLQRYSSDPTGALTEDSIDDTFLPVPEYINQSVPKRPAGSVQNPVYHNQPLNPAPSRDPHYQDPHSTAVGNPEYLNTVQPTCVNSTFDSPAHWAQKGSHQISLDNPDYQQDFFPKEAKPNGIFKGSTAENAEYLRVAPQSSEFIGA
- assay explanation: Biochemical Assay
Threshold check on IC50: strictly below 200 nM is 1 (yes); on or above 200 nM is 0 (no).

Before answering, review these 3 worked examples.
> print(dat)
                            compound.string    class
1  CN1CCC(NC(=O)c2ccc3c(c2)/C=C/c2n[nH]c4cnc(cc24)-c2cnn(C)c2COCCO3)CC1  1 (yes)
2  CN1CCN(C(=O)c2ccc3c(c2)/C=C/c2n[nH]c4cnc(cc24)-c2cnn(C)c2COCCO3)CC1   0 (no)
3  CN1CC[C@H](NC(=O)c2ccc3c(c2)OCCCOc2c(cnn2C)-c2cc4c(n[nH]c4cn2)/C=C/3)C1  1 (yes)

Q: Hello, is IC50 of the following compound strictly smaller than 200 nM? "Cc1nc2cc3c(n[nH]c13)/C=C/c1cc(F)ccc1OCCCOc1c-2cnn1C"
Result: 1 (yes)

Q: Hello, is IC50 of the following compound strictly smaller than 200 nM? "CC(C)NC(=O)c1ccc2c(c1)OCCCOc1c(cnn1C)-c1cc3c(n[nH]c3cn1)/C=C/2"
Result: 1 (yes)

Q: Hello, is IC50 of the following compound strictly smaller than 200 nM? "Cn1ncc2c1COCCOc1ccccc1/C=C/c1n[nH]c3cnc-2nc13"
Result: 0 (no)

Q: Hello, is IC50 of the following compound strictly smaller than 200 nM? "Cn1ncc2c1COCCOc1ccc(C(=O)O)cc1/C=C/c1n[nH]c3cnc-2cc13"
Result: 1 (yes)

Every entry's value here was drawn from BindingDB's records for patent US20240182487.
